# Tested on: rodent lifetime carcinogenesis bioassay, tumor incidence TD50
# Method: carcinogenic potency in animals, long-term in vivo studies, CPDB compilation (AID 1745844)
# Conditions: mouse; strain B6C3F1; males; oral dosing; site: liver; lesion: hepatoma; dosed 76 weeks; study length 76 weeks
Calls of active or inactive are those of the source. The rule behind the calls is not given here.
Measure: TD50

| Compound | TD50 |
| --- | --- |
| O=C1c2ccccc2C(=O)N1SC(Cl)(Cl)Cl | 242 mg/kg/day (inactive) |
| S=C=Nc1ccccc1 | 128 mg/kg/day (inactive) |
| CC(Oc1cc(Cl)c(Cl)cc1Cl)C(=O)O (configuration not stated) | 16.6 mg/kg/day (inactive) |
| CCCCN(CCCC)C(=S)[S-].CCCCN(CCCC)C(=S)[S-].[Ni+2] | 0.0509 mg/kg/day (inactive) |
| CCN(CC)C(=S)S | 68.7 mg/kg/day |

Qu. Recall the recorded TD50 for `CCN(CC)C(=S)[S-].CCN(CC)C(=S)[S-].[Cd+2]` with rodent lifetime carcinogenesis bioassay, tumor incidence TD50 and state it.
Ans. 16.7 mg/kg/day (inactive)

Qu. Please do the same for CCCCCCCCS(=O)C(C)Cc1ccc2c(c1)OCO2 (configuration not stated) as well.
Ans. 45.4 mg/kg/day

Qu. Please do the same for `NC(=O)Cc1cccc2ccccc12` as well.
Ans. 316 mg/kg/day (inactive)

Qu. Please do the same for `CCN(CC)C(=S)S[Te](SC(=S)N(CC)CC)(SC(=S)N(CC)CC)SC(=S)N(CC)CC` as well.
Ans. 24.2 mg/kg/day

Qu. Please do the same for `C[N+](C)(C)CCCl` as well.
Ans. 9.38 mg/kg/day

Qu. Please do the same for `N#CN` as well.
Ans. 55.7 mg/kg/day

Qu. Please do the same for `CC(C)CCCCCOC(=O)COc1ccc(Cl)cc1Cl` as well.
Ans. 31.7 mg/kg/day (inactive)

====

# Tested on: rodent lifetime carcinogenesis bioassay, tumor incidence TD50
# Method: carcinogenic potency in animals, long-term in vivo studies, CPDB compilation (AID 1745844)
# Conditions: mouse; strain B6C3F1; females; by gavage; site: liver; lesion: hepatocellular adenoma + hepatocellular carcinoma + neoplastic nodule; dosed 103 weeks; study length 104 weeks
Measure: TD50 (mg/kg/day)
Quick note: give the figure in mg/kg/day, leave out the unit.

| Molecule | Measured on | Unit symbol | TD50 |
| --- | --- | --- | --- |
| COC(N)=O | rodent lifetime carcinogenesis bioassay, tumor incidence TD50 | mg/kg/day | 4700 |
| CC1=CC(=O)CC(C)(C)C1 | rodent lifetime carcinogenesis bioassay, tumor incidence TD50 | mg/kg/day | 2740 |
| O=Cc1ccco1 | rodent lifetime carcinogenesis bioassay, tumor incidence TD50 | mg/kg/day | 377 |
| O=CCC=O | rodent lifetime carcinogenesis bioassay, tumor incidence TD50 | mg/kg/day | 568 |

Qu. Recall the recorded TD50 for CCCCC(CC)COP(=O)(OCC(CC)CCCC)OCC(CC)CCCC (stereo not given) with rodent lifetime carcinogenesis bioassay, tumor incidence TD50 and state it.
Ans. 2220

====

Let's look at some compounds and their measured TD50.
# Test system: rodent lifetime carcinogenesis bioassay, tumor incidence TD50
# Method: carcinogenic potency in animals, long-term in vivo studies, CPDB compilation (AID 1745844)
# Conditions: mouse; strain B6C3F1; males; in feed; site: liver; lesion: hepatocellular adenoma + hepatocellular carcinoma + neoplastic nodule; dosed 103 weeks; study length 104 weeks
Quick note: give the figure in mg/kg/day, leave out the unit.

Below: 7 compounds and their reported TD50.
| Compound | Measured on | Unit symbol | TD50 |
| --- | --- | --- | --- |
| CCCCC(CC)COC(=O)CCCCC(=O)OCC(CC)CCCC (stereo not drawn) | rodent lifetime carcinogenesis bioassay, tumor incidence TD50 | mg/kg/day | 5330 |
| Cc1cc(N=Nc2c(O)ccc3ccccc23)c(S(=O)(=O)O)cc1Cl | rodent lifetime carcinogenesis bioassay, tumor incidence TD50 | mg/kg/day | 781 |
| N=C1C=CC(=C(c2ccc(N)cc2)c2ccc(N)cc2)C=C1 | rodent lifetime carcinogenesis bioassay, tumor incidence TD50 | mg/kg/day | 116 |
| CC1CCC(C(C)C)C(O)C1 (stereo not drawn) | rodent lifetime carcinogenesis bioassay, tumor incidence TD50 | mg/kg/day | 1960 |
| CNc1ccc(N(CCO)CCO)cc1[N+](=O)[O-] | rodent lifetime carcinogenesis bioassay, tumor incidence TD50 | mg/kg/day | 259 |
| Nc1ccc(/C=C/c2ccc(N)c(S(=O)(=O)O)c2)c(S(=O)(=O)O)c1 | rodent lifetime carcinogenesis bioassay, tumor incidence TD50 | mg/kg/day | 9720 |
| Cc1noc(NS(=O)(=O)c2ccc(N)cc2)c1C | rodent lifetime carcinogenesis bioassay, tumor incidence TD50 | mg/kg/day | 6910 |

Now for another entry.
Qu. Form field: reported TD50 of `COC(=O)[C@H]1[C@H]2C[C@@H]3c4[nH]c5cc(OC)ccc5c4CCN3C[C@H]2C[C@@H](OC(=O)c2cc(OC)c(OC)c(OC)c2)[C@@H]1OC`
Ans. 5.46
